Hey, just so you know, these numbers are from the RNAGym collection of RNA variant scans (doi:10.1093/nar/gkz1192).

So I've got a bunch of variants here, and I need their self-cleavage values.
B1: CPEB3 Ribozyme (parent)
chain: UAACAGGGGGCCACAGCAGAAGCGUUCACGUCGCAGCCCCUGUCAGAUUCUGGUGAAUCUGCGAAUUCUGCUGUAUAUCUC

Variants of: B1
Test: self-cleavage, relative activity (ratio to wild type); higher = more cleavage; in vitro, sequencing
Give bare numbers.

A selection of reference data follows.
A13U U43A	1.09
A21C	0.24
A18U G53U	0.45
C12U U76C	1.31
C11G U78A	0.8
G16C C23A	0.5

For each listed entry, give its self-cleavage.
1. U1A U51A
2. C27U U41A
3. G16A A47G
4. C27A U72C
5. U54A U72C
6. A5U A13U
7. U1A G33A

[0.95, 0.2, 0.5, 0.19, 1.17, 1.16, 0.28]

Give measured self-cleavage for every item shown.
1. U26C A45G
2. A28U U51C
3. G63A C81U
4. A18G U80A
5. A35C U67G
6. G30A U76C

[0.32, 0.73, 1.07, 0.9, 0.39, 0.26]
